assay: Viability qHTS for spleen associated tyrosine kinase inhibitor (SYKi) naive MV4-11 cells (AID 1963823); settings: MV4-11 AML viability, CellTiter-Glo luminescence, 72 h; series mostly up to 45 µM; note: nearly all actives have a fitted effect of over 40% in size
Records with an inconclusive call do not appear. Active and inactive are the calls of the source. Calls come from the whole dose curve; as a rule, active = well fitted cell-killing curve with a large enough effect; inconclusive = small, poorly fitted or top-dose-only effect, or effect the other way; inactive = no such curve, though single readings can be large or run the other way.
A correct response names exactly one class from active, inactive

# example entries with known answers
**Query** Test call, this compound: "Clc1ccc2c(c1)C(N1CCNCC1)=Nc1ccccc1O2"
**Result** inactive

**Query** Test call, this compound: CC(C)(C)C(O)/C=C/c1ccc2c(c1)OCO2 (stereo not given)
**Result** inactive

**Query** Test call, this compound: "C[C@]1(O)CC[C@@H]2C(C(=O)O)=CO[C@@H](O[C@@H]3O[C@H](COC(=O)/C=C/c4ccc(O)c(O)c4)[C@@H](O)[C@H](O)[C@H]3O)[C@@H]21"
**Result** inactive

**Query** Test call, this compound: CCC(NC(=O)CC(NC(=O)C(CO)NC(=O)C(CC)NC(=O)c1ccc[nH]1)c1ccccc1)C(=O)O (stereo not given)
**Result** inactive

**Query** Test call, this compound: CC1(C)OC(=O)CC(O)C2(C)C1CC(=O)C1(C)C2C(O)CC2(C)C(c3ccoc3)OC(=O)C3OC321 (stereo not given)
**Result** inactive

New cases:
**Query** Test call, this compound: CC(C)NCC(O)COc1ccc(CCOCC2CC2)cc1 (stereo not given)
**Result** inactive

**Query** Test call, this compound: "OCc1ccc(-c2nn(Cc3ccccc3)c3ccccc23)o1"
**Result** active

**Query** Test call, this compound: "O=C(CCCCC1CCCCC1)N1CCC(c2cnc[nH]2)CC1"
**Result** active

**Query** Test call, this compound: "COc1ccc(CCC(C)=O)cc1"
**Result** inactive

**Query** Test call, this compound: "COc1ccc(-c2nc(-c3cc(C(F)(F)F)cc(C(F)(F)F)c3)n(Cc3ccc(C(N)=O)cc3)c2-c2ccc(OC)cc2)cc1"
**Result** active
